test system: S. Marcescens GC1781 Sme-1 + Ampc; assay: Antimicrobial susceptibility testing, microbroth dilution MIC of piperacillin + inhibitor; format: cell-based; conditions: piperacillin combined with constant 4 μg/ml inhibitor; Inc: 35° C. for 18 hours
Below: a set of entries, each annotated with reported Minimal Inhibitory Concentration S. Marcescens GC1781 Sme-1 + Ampc.
Write down the numeric answer in µg/mL and omit the unit.

See these solved cases before continuing.
COMPOUND: O=C(O)C1=CS[C@@H]2/C(=C\c3cn4c(nc5ccccc54)s3)C(=O)N12 [Example 17]
TEST_RESULT: 8

COMPOUND: O=C([O-])C1=CS[C@@H]2C(=Cc3cc4n(n3)Cc3ccccc3OC4)C(=O)N12.[Na+] [Example 11]
TEST_RESULT: 1

COMPOUND: O=C(O)C1=CS[C@@H]2/C(=C\c3cn4c(n3)sc3cc(Cl)ccc34)C(=O)N12 [Example 3]
TEST_RESULT: 1

Lab note: O=C([O-])C1=CS[C@@H]2/C(=C\c3cc4oc5c(n4n3)CCCC5)C(=O)N12.[Na+] [Example 32] gave Minimal Inhibitory Concentration S. Marcescens GC1781 Sme-1 + Ampc of 2

The compound listed as O=C(O)C1=CS[C@@H]2/C(=C\c3cn4nc5c(c4s3)CCC5)C(=O)N12 [Example 18] has a reported Minimal Inhibitory Concentration S. Marcescens GC1781 Sme-1 + Ampc of 4
